experiment: Proton dissociation constants of the ligands (pH-potentiometry, UV-vis, 1H NMR titrations); type: physicochemical; conditions: aqueous solution, 1H NMR; I = 0.2 M KNO3; T = 25.0 °C; read-out: pKa (NhPro/ProH+)
As shown below, each of these molecules has a reported pKa value.

[[record]]
molecule = "O=C(O)[C@H]1CCCCN1Cc1cc(Cl)c2cccnc2c1O [HQCl-D-hPro]"
measurement_label = "pKa"
result = "> 11"


Now let's try a different one.
Identify pKa associated with the molecule O=C(O)[C@H]1CCCN1Cc1cc(Cl)c2cccnc2c1O [HQCl-D-Pro] > 11

---

test system: Colo-320 human colon adenocarcinoma cell line (multidrug-resistant); experiment: MTT cytotoxicity assay in Colo-320; format: cell-based; conditions: Homo sapiens, COLO 320, 72 h incubation
measurement label: IC50 (nM)
Note: unit nM is implicit; provide only the numeric part.

Name the recorded IC50 of COc1cccc2c1C(=O)c1c(O)c3c(c(O)c1C2=O)C[C@@](O)(C(=O)CO)C[C@@H]3O[C@H]1C[C@H](N)[C@H](O)[C@H](C)O1 [doxorubicin, reference compound] , assay system Colo-320 human colon adenocarcinoma cell line (multidrug-resistant). 190
